Catalogue of molecules with associated AC50
System tested: Histamine H1 receptor (Homo sapiens, UniProt P35367); note: assay procedure not described here
Sequence (P35367 whole entry): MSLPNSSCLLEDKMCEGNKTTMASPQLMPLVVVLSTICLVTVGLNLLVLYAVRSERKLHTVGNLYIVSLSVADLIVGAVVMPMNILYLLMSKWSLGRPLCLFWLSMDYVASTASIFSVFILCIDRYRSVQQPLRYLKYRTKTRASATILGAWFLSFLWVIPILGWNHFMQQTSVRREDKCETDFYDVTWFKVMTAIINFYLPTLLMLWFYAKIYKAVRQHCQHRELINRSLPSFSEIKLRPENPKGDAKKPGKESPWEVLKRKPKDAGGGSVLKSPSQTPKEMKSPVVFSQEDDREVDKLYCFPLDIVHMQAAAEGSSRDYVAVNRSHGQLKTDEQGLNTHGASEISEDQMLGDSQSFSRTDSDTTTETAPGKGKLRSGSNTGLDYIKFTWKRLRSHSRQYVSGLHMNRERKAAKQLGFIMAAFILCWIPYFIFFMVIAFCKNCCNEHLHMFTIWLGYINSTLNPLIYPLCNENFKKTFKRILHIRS

For orientation, consider the following solved cases.
CCCOC(C(=O)OC1CCN(C)CC1)(c1ccccc1)c1ccccc1 | 18 µM
CC(=N)N1CC[C@H](SC2=C(C(=O)O)N3C(=O)[C@H]([C@@H](C)O)[C@H]3C2)C1 | > 300 µM
CCOC(=O)Nc1ccc2c(c1)N(C(=O)CCN1CCOCC1)c1ccccc1S2 | > 30 µM

Problem: Which AC50 value belongs to CCC(C)(Oc1ccc(C2(c3ccc(OC(C)(CC)C(=O)O)cc3)CCCCC2)cc1)C(=O)O (stereo not drawn) [CLINOFIBRATE] ?
Result: > 30 µM

Problem: Requested read-out: AC50. Entry: NS(=O)(=O)c1cc(C(=O)O)cc(N2CCCC2)c1Oc1ccccc1 [PIRETANIDE]
Result: > 30 µM

Problem: Look at this molecule and give its reported AC50. CCCC[C@H](C)C[C@H](O)/C=C/[C@H]1[C@H](O)CC(=O)[C@@H]1CCCC/C=C/C(=O)O
Result: > 30 µM

Problem: Recorded AC50 of CC#CCn1c(N2CCC[C@@H](N)C2)nc2c1c(=O)n(Cc1nc(C)c3ccccc3n1)c(=O)n2C , please.
Result: > 10 µM

Problem: // AC50 lookup, key: COCCOC(=O)C1=C(C)NC(C)=C(C(=O)OC/C=C/c2ccccc2)C1c1cccc([N+](=O)[O-])c1 (stereo not drawn)
Result: > 30 µM

---

System tested: Alpha-2B adrenergic receptor (Homo sapiens, UniProt P18089); note: assay procedure not described here
Sequence (P18089 whole entry): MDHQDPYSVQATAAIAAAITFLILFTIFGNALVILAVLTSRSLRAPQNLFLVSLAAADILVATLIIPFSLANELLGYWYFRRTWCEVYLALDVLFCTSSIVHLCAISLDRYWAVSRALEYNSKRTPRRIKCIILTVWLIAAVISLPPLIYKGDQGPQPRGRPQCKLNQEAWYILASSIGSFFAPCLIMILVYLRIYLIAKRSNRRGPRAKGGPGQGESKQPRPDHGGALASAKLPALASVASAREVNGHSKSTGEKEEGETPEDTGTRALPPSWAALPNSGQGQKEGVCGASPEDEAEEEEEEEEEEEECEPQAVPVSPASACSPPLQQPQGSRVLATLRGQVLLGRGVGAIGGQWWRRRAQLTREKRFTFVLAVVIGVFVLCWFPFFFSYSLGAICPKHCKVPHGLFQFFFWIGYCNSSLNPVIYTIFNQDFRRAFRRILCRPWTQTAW
Measured property: AC50

Oc1c(I)cc(Cl)c2cccnc12 | > 30 µM
O=C(Nc1nc(-c2cc(Cl)cs2)c(N2CCN(C3CCCCC3)CC2)s1)c1cnc(N2CCC(C(=O)O)CC2)c(Cl)c1 | > 10 µM
CC(=O)Oc1ccccc1C(=O)Nc1ncc([N+](=O)[O-])s1 [NITAZOXANIDE] | 8 µM
COc1c(O[C@@H]2O[C@H](CO)[C@@H](O)[C@H](O)[C@H]2O)cc2c(c1OC)-c1ccc(SC)c(=O)cc1[C@@H](NC(C)=O)CC2 [THIOCOLCHICOSIDE] | > 30 µM
COCCOC(=O)C1=C(C)NC(C)=C(C(=O)OC/C=C/c2ccccc2)C1c1cccc([N+](=O)[O-])c1 (centres undefined) | > 30 µM
O=C(O)c1cc(O)c2c3nc4ccccc4oc-3cc(=O)c2n1 | 3.8 µM
CNCC[C@@H](Oc1ccccc1C)c1ccccc1 | 23 µM
NS(=O)(=O)c1cc2c(cc1C(F)(F)F)NC(Cc1ccccc1)NS2(=O)=O (centres undefined) [BENDROFLUMETHIAZIDE] | > 10 µM

Problem: Returns the measured AC50 for the input compound. Input: CC(C)N(CCCCOCC(=O)NS(C)(=O)=O)c1cnc(-c2ccccc2)c(-c2ccccc2)n1
Result: > 30 µM

Problem: Name the reported AC50 value associated with the compound CC(C)OC(=O)C(C(=O)OC(C)C)=C1SC=CS1 [MALOTILATE]
Result: > 30 µM

Problem: Please give the measured AC50 for this compound: CN1CCN(CCCN2c3ccccc3Sc3ccc(S(=O)(=O)N(C)C)cc32)CC1
Result: 0.15 µM

Problem: Need AC50 of CC[N+]1(C)CCCC(OC(=O)C(O)(c2ccccc2)c2ccccc2)C1 (centres undefined) [PIPENZOLATE] , thanks.
Result: > 30 µM

Problem: Could you tell me which AC50 is on file for CC(=N)N1CC[C@H](SC2=C(C(=O)O)N3C(=O)[C@H]([C@@H](C)O)[C@H]3C2)C1 ?
Result: 300 µM

Problem: AC50 for CC(=O)/N=c1/sc(S(N)(=O)=O)nn1C [METHAZOLAMIDE] ?
Result: > 10 µM

Problem: Give its AC50 value. Item: Cc1ccc(NC(=O)C2(c3ccc4c(c3)OC(F)(F)O4)CC2)nc1-c1cccc(C(=O)O)c1
Result: > 30 µM

Problem: Which value of AC50 has been reported for CNCC[C@H](Oc1cccc2ccccc12)c1cccs1 in the records?
Result: 3.9 µM

Problem: Name the reported AC50 value associated with the compound C[C@@H]1CCC[C@H](C)N1NC(=O)c1ccc(Cl)c(S(N)(=O)=O)c1 [CLOPAMIDE]
Result: > 30 µM

Problem: // returns reported AC50 for input CC(C)=CCOc1ccc(/C=C/C(=O)c2ccc(OCC=C(C)C)cc2OCC(=O)O)cc1
Result: > 30 µM

Problem: Which AC50 value is on record for COc1cccc(N(C)C(=S)Oc2ccc3c(c2)CCCC3)n1 [LIRANAFTATE] ?
Result: > 30 µM

---

Some compounds, each annotated with its measured AC50.
System tested: Voltage-gated inwardly rectifying potassium channel KCNH2 (Homo sapiens, UniProt Q12809); note: assay procedure not described here
Sequence (Q12809 whole entry): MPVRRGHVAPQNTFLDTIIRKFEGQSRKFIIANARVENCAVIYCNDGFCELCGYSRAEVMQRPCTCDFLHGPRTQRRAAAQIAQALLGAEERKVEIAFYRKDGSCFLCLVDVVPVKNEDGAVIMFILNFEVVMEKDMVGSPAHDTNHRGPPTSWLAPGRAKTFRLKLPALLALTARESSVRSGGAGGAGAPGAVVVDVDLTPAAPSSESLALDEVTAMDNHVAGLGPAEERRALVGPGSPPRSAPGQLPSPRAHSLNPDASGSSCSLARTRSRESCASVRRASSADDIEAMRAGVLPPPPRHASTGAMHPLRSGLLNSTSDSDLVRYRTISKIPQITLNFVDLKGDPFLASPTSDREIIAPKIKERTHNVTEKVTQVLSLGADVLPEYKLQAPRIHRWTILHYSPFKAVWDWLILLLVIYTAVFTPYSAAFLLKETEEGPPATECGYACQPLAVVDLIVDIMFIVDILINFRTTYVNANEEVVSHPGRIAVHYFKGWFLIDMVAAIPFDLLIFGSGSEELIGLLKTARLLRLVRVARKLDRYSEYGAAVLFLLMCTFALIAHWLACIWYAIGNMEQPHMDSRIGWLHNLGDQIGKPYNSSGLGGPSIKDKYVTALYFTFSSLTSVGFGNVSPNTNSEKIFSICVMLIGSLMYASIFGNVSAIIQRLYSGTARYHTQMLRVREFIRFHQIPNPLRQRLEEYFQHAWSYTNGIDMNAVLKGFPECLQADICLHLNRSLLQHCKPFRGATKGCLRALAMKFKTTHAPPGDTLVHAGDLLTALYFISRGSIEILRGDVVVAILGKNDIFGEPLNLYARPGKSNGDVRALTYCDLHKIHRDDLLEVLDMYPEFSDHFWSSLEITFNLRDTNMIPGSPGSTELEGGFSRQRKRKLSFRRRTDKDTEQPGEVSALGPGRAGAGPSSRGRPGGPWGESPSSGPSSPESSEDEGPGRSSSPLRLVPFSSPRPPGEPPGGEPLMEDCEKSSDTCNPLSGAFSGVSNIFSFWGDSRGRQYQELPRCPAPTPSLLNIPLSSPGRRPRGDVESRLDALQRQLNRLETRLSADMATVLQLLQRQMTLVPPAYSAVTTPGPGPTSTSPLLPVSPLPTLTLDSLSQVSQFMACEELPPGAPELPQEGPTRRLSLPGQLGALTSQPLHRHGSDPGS
Assay type: functional
Test conditions: read-out: AC50; note: assay procedure not described here

Example compounds with recorded AC50:
CCOc1cc(N)c(Cl)cc1C(=O)NCC1CN(Cc2ccc(F)cc2)CCO1 (configuration not stated) [MOSAPRIDE] | > 30 µM
CC(C)OC(=O)C(C(=O)OC(C)C)=C1SC=CS1 [MALOTILATE] | > 30 µM

Problem: // query AC50 value for entry O=C(Oc1ccccc1C(=O)O)c1ccccc1O [SALSALATE]
Result: > 30 µM

Problem: What does the data say about its AC50? Entry: C#C[C@]1(O)CC[C@H]2[C@@H]3CCc4cc(OC)ccc4[C@H]3CC[C@@]21C
Result: > 30 µM

Problem: I'd like to know its AC50. The compound in question is CCCCCCCCCCCCCCCCCC(=O)NCCCC[C@H](NC(=O)CC[C@@H](NC(=O)[C@H](C)NC(=O)[C@@H](C)O[C@H]1[C@H](O)[C@@H](CO)OC(O)[C@@H]1NC(C)=O)C(N)=O)C(=O)O (some centres not stated) [ROMURTIDE]
Result: 26 µM

Problem: Fill blank: measured AC50 of the compound COC(=O)[C@@H]1[C@H]2C[C@H]3c4[nH]c5ccccc5c4CCN3C[C@@H]2CC[C@@H]1O is ____.
Result: 29.1 µM

Problem: Report AC50 for CCC(=O)OCC(=O)[C@@]1(OC(=O)CC)[C@@H](C)C[C@H]2[C@@H]3CCC4=CC(=O)C=C[C@]4(C)[C@@]3(F)[C@@H](O)C[C@@]21C [BETAMETHASONE DIPROPIONATE] please.
Result: > 30 µM

---

A set of molecules tested on UniProt P23975, with measured AC50:

O=C(CCCN1CC=C(n2c(=O)[nH]c3ccccc32)CC1)c1ccc(F)cc1 [DROPERIDOL] | > 30 µM
CC(C1=C(CCN(C)C)Cc2ccccc21)c1ccccn1 (stereo unspecified) | 11.9 µM
COC(=O)C1=C(C)NC(C)=C(C(=O)O[C@H]2CCN(Cc3ccccc3)C2)[C@H]1c1cccc([N+](=O)[O-])c1 [BARNIDIPINE] | 0.635 µM
C[C@@H]1C[C@H]2[C@@H]3C[C@H](F)C4=CC(=O)C=C[C@]4(C)[C@@]3(Cl)[C@@H](O)C[C@]2(C)[C@H]1C(=O)COC(=O)C(C)(C)C [CLOCORTOLONE PIVALATE] | > 30 µM
CO[C@H]1/C=C/O[C@@]2(C)Oc3c(C)c(O)c4c(O)c(cc(O)c4c3C2=O)NC(=O)/C(C)=C\C=C\[C@H](C)[C@H](O)[C@@H](C)[C@@H](O)[C@@H](C)[C@H](OC(C)=O)[C@@H]1C [RIFAMYCIN] | > 30 µM

Problem: Could you share what AC50 was measured for Cc1ccc([C@@H]2O[C@H](CO)[C@@H](O)[C@H](O)[C@H]2O)cc1Cc1ccc(-c2ccc(F)cc2)s1 [CANAGLIFLOZIN ANHYDROUS] , tested on UniProt P23975?
Result: > 30 µM

Problem: Enter reported AC50 observed with UniProt P23975 for CC1(C)S[C@@H]2[C@H](NC(=O)[C@H](NC(=O)N3CCN(S(C)(=O)=O)C3=O)c3ccccc3)C(=O)N2[C@H]1C(=O)O [MEZLOCILLIN]
Sequence (P23975 whole entry): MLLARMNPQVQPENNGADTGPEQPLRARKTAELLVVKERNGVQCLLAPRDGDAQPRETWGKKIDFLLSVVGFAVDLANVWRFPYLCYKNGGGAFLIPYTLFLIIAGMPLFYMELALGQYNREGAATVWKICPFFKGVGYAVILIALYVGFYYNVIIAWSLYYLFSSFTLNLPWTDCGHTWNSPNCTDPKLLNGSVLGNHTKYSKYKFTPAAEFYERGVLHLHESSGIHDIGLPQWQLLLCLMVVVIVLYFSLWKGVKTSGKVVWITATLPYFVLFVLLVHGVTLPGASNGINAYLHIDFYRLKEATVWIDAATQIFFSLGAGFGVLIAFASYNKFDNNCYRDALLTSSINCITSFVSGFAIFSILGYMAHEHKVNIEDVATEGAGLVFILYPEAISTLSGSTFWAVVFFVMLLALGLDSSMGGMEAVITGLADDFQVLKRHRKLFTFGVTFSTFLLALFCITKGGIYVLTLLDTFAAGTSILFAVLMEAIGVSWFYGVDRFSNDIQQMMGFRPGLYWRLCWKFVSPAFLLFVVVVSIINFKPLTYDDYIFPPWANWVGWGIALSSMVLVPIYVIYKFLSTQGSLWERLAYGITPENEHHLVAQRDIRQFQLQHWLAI
Result: > 30 µM

All figures here come from ChEMBL document CHEMBL5291721.
